Source: paper PMC7531004

- System: P388 mouse leukemia cells
- PROTOCOL CONDITIONS: 92 h
Where a SMILES comes first, the peptide text is derived from it. [ ]: non-standard residue; d: D form. The star is where a group is joined. NHCH2CH2OH = OCCN*; For = O=C*
PROPERTY: cell viability/% (%)
A number alone suffices; assume %.

Enquiry: Answer with the recorded cell viability/% for the compound listed here: CC(C)C[C@@H](NC(=O)[C@H](C)NC(=O)[C@H](NC(=O)[C@H](C)NC(=O)CNC(=O)[C@@H](NC=O)C(C)C)C(C)C)C(=O)N[C@H](C(=O)N[C@@H](C(=O)N[C@@H](Cc1c[nH]c2ccccc12)C(=O)N[C@@H](C(=O)N[C@@H](Cc1c[nH]c2ccccc12)C(=O)N[C@@H](C(=O)N[C@@H](Cc1c[nH]c2ccccc12)C(=O)N[C@@H](C(=O)N[C@@H](Cc1c[nH]c2ccccc12)C(=O)NCCO)C(C)C)C(C)C)C(C)C)C(C)C)C(C)C [compound 8909] (For-VGA[dV]A[dL]V[dV]W[dV]W[dV]W[dV]W-NHCH2CH2OH)
Return: 85.9

Enquiry: Answer with the recorded cell viability/% for the compound listed here: CC(C)C[C@@H](NC(=O)[C@H](C)NC(=O)[C@H](NC(=O)[C@H](C)NC(=O)CNC(=O)[C@@H](NC=O)C(C)C)C(C)C)C(=O)N[C@H](C(=O)N[C@H](CC(C)C)C(=O)N[C@@H](Cc1c[nH]c2ccccc12)C(=O)N[C@H](CC(C)C)C(=O)N[C@@H](Cc1c[nH]c2ccccc12)C(=O)N[C@@H](C(=O)N[C@@H](Cc1c[nH]c2ccccc12)C(=O)N[C@@H](C(=O)N[C@@H](Cc1c[nH]c2ccccc12)C(=O)NCCO)C(C)C)C(C)C)C(C)C [compound 11280] (For-VGA[dV]A[dL]V[dL]W[dL]W[dV]W[dV]W-NHCH2CH2OH)
Return: 9.9

Enquiry: Answer with the recorded cell viability/% for the compound listed here: CC(C)C[C@@H](NC(=O)[C@H](C)NC(=O)[C@H](NC(=O)[C@H](C)NC(=O)CNC(=O)[C@@H](NC=O)C(C)C)C(C)C)C(=O)N[C@H](C(=O)N[C@@H](C(=O)N[C@@H](Cc1c[nH]c2ccccc12)C(=O)N[C@@H](C(=O)N[C@@H](Cc1c[nH]c2ccccc12)C(=O)N[C@H](CC(C)C)C(=O)N[C@@H](Cc1c[nH]c2ccccc12)C(=O)N[C@H](CC(C)C)C(=O)N[C@@H](Cc1c[nH]c2ccccc12)C(=O)NCCO)C(C)C)C(C)C)C(C)C [compound 5463] (For-VGA[dV]A[dL]V[dV]W[dV]W[dL]W[dL]W-NHCH2CH2OH)
Return: 100.0

Enquiry: Answer with the recorded cell viability/% for the compound listed here: CC(C)C[C@@H](NC(=O)[C@H](C)NC(=O)CNC(=O)[C@@H](NC=O)C(C)C)C(=O)N[C@@H](C)C(=O)N[C@H](CC(C)C)C(=O)N[C@H](C(=O)N[C@H](CC(C)C)C(=O)N[C@@H](Cc1c[nH]c2ccccc12)C(=O)N[C@H](CC(C)C)C(=O)N[C@@H](Cc1c[nH]c2ccccc12)C(=O)N[C@@H](C(=O)N[C@@H](Cc1c[nH]c2ccccc12)C(=O)N[C@H](CC(C)C)C(=O)N[C@@H](Cc1c[nH]c2ccccc12)C(=O)NCCO)C(C)C)C(C)C [compound 646] (For-VGA[dL]A[dL]V[dL]W[dL]W[dV]W[dL]W-NHCH2CH2OH)
Return: 0.2

Enquiry: Answer with the recorded cell viability/% for the compound listed here: CC(C)C[C@@H](NC(=O)[C@H](Cc1c[nH]c2ccccc12)NC(=O)[C@@H](CC(C)C)NC(=O)[C@@H](NC(=O)[C@H](NC(=O)[C@H](C)NC(=O)[C@H](NC(=O)[C@H](C)NC(=O)CNC(=O)[C@@H](NC=O)C(C)C)C(C)C)C(C)C)C(C)C)C(=O)N[C@@H](Cc1c[nH]c2ccccc12)C(=O)N[C@@H](C(=O)N[C@@H](Cc1c[nH]c2ccccc12)C(=O)N[C@@H](C(=O)N[C@@H](Cc1c[nH]c2ccccc12)C(=O)NCCO)C(C)C)C(C)C [compound 8969] (For-VGA[dV]A[dV]V[dL]W[dL]W[dV]W[dV]W-NHCH2CH2OH)
Return: 8.7

Enquiry: Answer with the recorded cell viability/% for the compound listed here: CNC(=O)C[C@@H](NC(=O)[C@@H](NC(=O)[C@H](NC(=O)[C@H](C)NC(=O)[C@@H](CC(C)C)NC(=O)[C@H](C)NC(=O)CNC(=O)[C@@H](NC=O)C(C)C)C(C)C)C(C)C)C(=O)N[C@@H](Cc1c[nH]c2ccccc12)C(=O)N[C@@H](C(=O)N[C@@H](Cc1c[nH]c2ccccc12)C(=O)N[C@H](CC(C)C)C(=O)N[C@@H](Cc1c[nH]c2ccccc12)C(=O)N[C@H](CC(C)C)C(=O)N[C@@H](Cc1c[nH]c2ccccc12)C(=O)NCCO)C(C)C [compound 3584] (For-VGA[dL]A[dV]V[dD](NHMe)W[dV]W[dL]W[dL]W-NHCH2CH2OH)
Return: 100.0

Enquiry: Answer with the recorded cell viability/% for the compound listed here: CC(C)C[C@@H](NC(=O)[C@H](Cc1c[nH]c2ccccc12)NC(=O)[C@H](NC(=O)[C@H](Cc1c[nH]c2ccccc12)NC(=O)[C@@H](CC(C)C)NC(=O)[C@H](Cc1c[nH]c2ccccc12)NC(=O)[C@@H](CC(C)C)NC(=O)[C@@H](NC(=O)[C@H](NC(=O)[C@H](C)NC(=O)[C@H](NC(=O)[C@H](C)NC(=O)CNC(=O)[C@@H](NC=O)C(C)C)C(C)C)C(C)C)C(C)C)[C@H](C)O)C(=O)N[C@@H](Cc1c[nH]c2ccccc12)C(=O)NCCO [compound 10516] (For-VGA[dV]A[dV]V[dL]W[dL]W[dT]W[dL]W-NHCH2CH2OH)
Return: 100.0

Enquiry: Answer with the recorded cell viability/% for the compound listed here: CC(C)C[C@@H](NC(=O)[C@H](C)NC(=O)CNC(=O)[C@@H](NC=O)C(C)C)C(=O)N[C@@H](C)C(=O)N[C@@H](C(=O)N[C@H](C(=O)N[C@@H](C(=O)N[C@@H](Cc1c[nH]c2ccccc12)C(=O)N[C@H](CC(C)C)C(=O)N[C@@H](Cc1c[nH]c2ccccc12)C(=O)N[C@H](CC(C)C)C(=O)N[C@@H](Cc1c[nH]c2ccccc12)C(=O)N[C@@H](C(=O)N[C@@H](Cc1c[nH]c2ccccc12)C(=O)NCCO)C(C)C)[C@H](C)O)C(C)C)C(C)C [compound 2235] (For-VGA[dL]A[dV]V[dT]W[dL]W[dL]W[dV]W-NHCH2CH2OH)
Return: 100.0
